# Tested on: E. coli
# testDescription: Antibacterial activity, minimum inhibitory concentration
# Type: cell-based
# Parameters: key: R: resistant; S: sensitive
# assayConditions: 125 µg/200 µL
measureName: Minimum inhibitory concentration: sensitive/resistant

// below: answered molecules
O=[N+]([O-])c1ccc(/N=N/c2ccc(O)cc2O)cc1 [TR-1] = S
Oc1ccc(N=Nc2cccnc2Cl)c(O)c1 [TR-7] = R
O=[N+]([O-])c1ccc(/N=N/c2c(O)ccc3ccccc23)cc1 [TR-3] = R
CC1(C)S[C@@H]2[C@H](NC(=O)[C@H](N)c3ccccc3)C(=O)N2[C@H]1C(=O)O [Ampicillin, reference compound] = S

Enquiry: Using the record for O=[N+]([O-])c1ccc(/N=N/c2ccc(O)c3ccccc23)cc1 [TR-2] , report its Minimum inhibitory concentration: sensitive/resistant.
Return: R

Enquiry: Fill in the blank: the reported Minimum inhibitory concentration: sensitive/resistant of Oc1ccc(N=Nc2cccnc2Cl)c2ccccc12 [TR-8] is ____.
Return: R

----------
# Test system: P. vulgaris
# testDescription: Antibacterial activity, minimum inhibitory concentration
# Format: cell-based
# Set-up: key: R: resistant; S: sensitive
# assayConditions: 250 µg/200 µL
measureName: Minimum inhibitory concentration: sensitive/resistant

The examples below pair each entry with its known result.
CC1(C)S[C@@H]2[C@H](NC(=O)[C@H](N)c3ccccc3)C(=O)N2[C@H]1C(=O)O [Ampicillin, reference compound] = S
O=[N+]([O-])c1ccc(/N=N/c2ccc(O)c3ccccc23)cc1 = R
Oc1ccc(N=Nc2cccnc2Cl)c(O)c1 = R
O=[N+]([O-])c1ccc(/N=N/c2ccc(O)cc2O)cc1 = S
Oc1ccc(N=Nc2cccnc2Cl)c2ccccc12 = R

Enquiry: Query (molecule): O=[N+]([O-])c1ccc(/N=N/c2c(O)ccc3ccccc23)cc1 ; field requested: Minimum inhibitory concentration: sensitive/resistant
Return: R

----------
# Tested on: S. aureus (DS)
# testDescription: Antibacterial activity, minimum inhibitory concentration
# Assay type: cell-based
# Design: key: R: resistant; S: sensitive
# assayConditions: 125 µg/200 µL
measureName: Minimum inhibitory concentration: sensitive/resistant

Recorded results for 5 molecules are shown here.
Oc1ccc(N=Nc2cccnc2Cl)c(O)c1 = R
O=[N+]([O-])c1ccc(/N=N/c2c(O)ccc3ccccc23)cc1 = R
O=[N+]([O-])c1ccc(/N=N/c2ccc(O)c3ccccc23)cc1 = R
O=[N+]([O-])c1ccc(/N=N/c2ccc(O)cc2O)cc1 = S
CC1(C)S[C@@H]2[C@H](NC(=O)[C@H](N)c3ccccc3)C(=O)N2[C@H]1C(=O)O [Ampicillin, reference compound] = S

Please turn your attention to the following entry.
Enquiry: // returns reported Minimum inhibitory concentration: sensitive/resistant for input Oc1ccc(N=Nc2cccnc2Cl)c2ccccc12
Return: S

----------
# targetEntity: α-glucosidase
# testDescription: In vitro α-glucosidase inhibition assay (pNPG substrate)
# Assay type: biochemical, Saccharomyces Cerevisiae
# assayConditions: means ± SEM of triplicate
Recorded IC50 for the following compounds
Form entry: value (µg/mL) — number only.

Example cases with answers are listed next.
O=[N+]([O-])c1ccc(/N=N/c2ccc(O)c3ccccc23)cc1 = 110.2
Oc1ccc(N=Nc2cccnc2Cl)c(O)c1 = 29.7

Enquiry: Requested field: IC50. Item: O=[N+]([O-])c1ccc(/N=N/c2ccc(O)cc2O)cc1
Return: 15.70

Enquiry: What measured IC50 goes with O=[N+]([O-])c1ccc(/N=N/c2c(O)ccc3ccccc23)cc1 ?
Return: 116.9

Enquiry: Which value of IC50 has been reported for Oc1ccc(N=Nc2cccnc2Cl)c2ccccc12 in the records?
Return: 36.7
